- Protocol Description: chemical genetic growth profiling, strain panel (AID 1159580);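 note: tested at 20 µM; growth read once vehicle control cultures reached saturation at 30 °C; lower values mean less growth of the strain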
- Test Context: S. cerevisiae deletion strains, growth OD, locus YER155C, strain BEM2
About 2,000 (36%) of roughly 5,500 compounds were called active. Inconclusive results (about 18%) are left out. Cut-off read from the data, not from the text of the source: active = normalized growth mostly below about 0.91 (no sharp cut-off); inconclusive = no clear call, values can overlap the other calls; inactive = mostly above about 0.92. The list shows a part of the results.
Possible outcomes: active, inactive

{"Compound": "CC1(C)O[C@H]2CC(=O)OC[C@]23[C@H]2CC[C@@]4(C)[C@H](c5ccoc5)OC(=O)[C@H]5O[C@]54[C@]2(C)C(=O)C[C@@H]13", "Qualitative Label": "inactive"}
{"Compound": "CC(=O)O[C@@H]1CC2C(C)(C)C(=O)C=C[C@]2(C)C2CC[C@@]3(C)[C@H](c4ccoc4)OC(=O)[C@H]4O[C@]43[C@@]21C (stereo not given in full)", "Qualitative Label": "inactive"}
{"Compound": "CC(CC(O)C1OC1(C)C)[C@@H]1CCC2(C)C3=CCC4C(C)(C)C(=O)CCC4(C)C3CC[C@@]12C (stereo not given in full)", "Qualitative Label": "inactive"}
{"Compound": "COc1ccc2c3c1OC1C(O)CC=C4C(C2)N(C)CCC431 (stereo not given)", "Qualitative Label": "inactive"}
{"Compound": "O=C1C=C2C(=CCOC2O)O1 (stereo not given)", "Qualitative Label": "inactive"}
{"Compound": "CC1(C)C=CC(=O)[C@@]2(C)C1CC(=O)[C@]1(C)C2CC[C@@]2(C)[C@H](c3ccoc3)OC(=O)C3OC321 (stereo not given in full)", "Qualitative Label": "inactive"}
{"Compound": "Cc1[nH]ccc2c1[nH]c1cc(=O)ccc12", "Qualitative Label": "inactive"}
{"Compound": "CC1(C)C(=O)C=C[C@@]2(C)C1C=C[C@]1(C)C2CC[C@@]2(C)[C@H](c3ccoc3)OC(=O)C3OC321 (stereo not given in full)", "Qualitative Label": "inactive"}
{"Compound": "CCCCCCC(C)OC(=O)COc1ccc(Cl)cc1Cl (stereo not given)", "Qualitative Label": "inactive"}
{"Compound": "CC(C)(C)NCC(O)c1cc(O)cc(O)c1 (stereo not given)", "Qualitative Label": "inactive"}
{"Compound": "CC1=CC(=O)C2=C(C)CC[C@@H]3[C@H](OC(=O)[C@H]3C)[C@@H]12", "Qualitative Label": "inactive"}
{"Compound": "COc1cccc2c(C)cc(=O)[nH]c12", "Qualitative Label": "inactive"}
{"Compound": "CCC/C=C1\\OC(=O)C2=C1CCC=C2", "Qualitative Label": "inactive"}
{"Compound": "COC(=O)[C@@]1(C)CCC[C@]2(C)c3ccc(O)c(C(C)C)c3CCC12 (stereo not given in full)", "Qualitative Label": "active"}
{"Compound": "CC(C)c1c(O)ccc2c1CCC1[C@@](C)(CO)CCC[C@]21C (stereo not given in full)", "Qualitative Label": "inactive"}
{"Compound": "CC(=O)O[C@@H]1CC(=O)[C@@]2(C)C(CC(=O)[C@]3(C)C2CC[C@@]2(C)[C@H](c4ccoc4)OC(=O)C4OC423)C1(C)C (stereo not given in full)", "Qualitative Label": "inactive"}
{"Compound": "NS(=O)(=O)c1cc(C2(O)NC(=O)c3ccccc32)ccc1Cl (stereo not given)", "Qualitative Label": "inactive"}
{"Compound": "CC1(C)C2CC(=O)[C@]3(C)C(CC[C@@]4(C)[C@H](c5ccoc5)OC(=O)C5OC543)[C@@]2(C)[C@@H](O)C[C@H]1O (stereo not given in full)", "Qualitative Label": "inactive"}
{"Compound": "CCc1cccc(CC)c1N(COC)C(=O)CCl", "Qualitative Label": "inactive"}
{"Compound": "NC(=O)NCC(N)C(=O)O (stereo not given)", "Qualitative Label": "inactive"}
